Catalogue of IC50 readings, one per entry.
# SYSTEM NAME: Alpha-glucosidase (Saccharomyces cerevisiae S288c, UniProt P53341+P38158+P07265)
# METHOD SUMMARY: Inhibition of Saccharomyces cerevisiae alpha-glucosidase using pNPG as substrate incubated for 30 mins by microplate reader analysis
# Type: protein assay

>  <MOLECULE>
COc1cc2c(O)c(Oc3cc(O[C@@H]4O[C@H](CO)[C@@H](O)[C@H](O)[C@H]4O[C@@H]4O[C@H](CO)[C@@H](O)[C@H](O)[C@H]4O)c4ccc(=O)oc4c3)c(=O)oc2cc1O

>  <IC50, µg/mL>
231

$$$$
>  <MOLECULE>
O=c1ccc2ccc(Oc3cc4cc(O)c(O)cc4oc3=O)cc2o1

>  <IC50, µg/mL>
49.6

$$$$
>  <MOLECULE>
COc1cc2cc(Oc3ccc4ccc(=O)oc4c3)c(=O)oc2cc1O

>  <IC50, µg/mL>
86

$$$$
>  <MOLECULE>
O=c1ccc2ccc(O)c(-c3c(O[C@@H]4OC(CO)[C@@H](O)C(O)C4O)ccc4ccc(=O)oc34)c2o1 (some centres undefined)

>  <IC50, µg/mL>
760

$$$$

----------
# METHOD SUMMARY: Inhibition of HIV-1 integrase
# Parameters: species or system Human immunodeficiency virus 1

>  <MOL SMILES>
O=c1oc2ccccc2c(O)c1C(c1ccc(C(c2c(O)c3ccccc3oc2=O)c2c(O)c3ccccc3oc2=O)cc1)c1c(O)c2ccccc2oc1=O

>  <IC50 (µM)>
8

$$$$
